- experimental-system: T1, His-tagged PDGFRb extracellular domain (UniProt P09619 33-532, limits assumed)
- T1 construct: extracellular domain; also called c-Kit family member; not shown: His tag
- T1 sequence (P09619 33-532 limits assumed): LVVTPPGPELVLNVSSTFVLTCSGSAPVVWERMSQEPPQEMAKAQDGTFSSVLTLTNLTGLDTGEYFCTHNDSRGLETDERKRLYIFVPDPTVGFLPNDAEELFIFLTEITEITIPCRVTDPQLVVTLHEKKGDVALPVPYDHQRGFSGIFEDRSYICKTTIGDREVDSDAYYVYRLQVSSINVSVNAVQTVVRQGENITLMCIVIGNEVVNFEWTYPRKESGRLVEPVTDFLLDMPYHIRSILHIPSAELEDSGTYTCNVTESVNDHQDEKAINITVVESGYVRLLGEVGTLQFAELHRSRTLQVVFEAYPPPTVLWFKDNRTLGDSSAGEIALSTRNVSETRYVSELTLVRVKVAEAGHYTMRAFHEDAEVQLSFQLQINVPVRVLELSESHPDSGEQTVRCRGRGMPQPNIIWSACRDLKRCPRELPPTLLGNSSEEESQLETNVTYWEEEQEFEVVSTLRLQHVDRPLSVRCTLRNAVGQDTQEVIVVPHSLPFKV
- measurement-notes: ELISA, His-tagged extracellular domain coated
measurement-label: binding result

binder	measurement-label	result
hSR1-4 (antibody, human IgG1, kappa, V domains shown, also called humanized SR1-4; hSR1-H3b / hSR1-L2) VH: QVQLVQSGAEVKKPGASVKMSCKASGYTFTSYNMHWVRQAPGQGLEWIGVIYSGNGDTSYAQKFQGRATLTADKSTSTAYMELSSLRSEDTAVYYCARERDTRFGNWGQGTLVTVSS VL: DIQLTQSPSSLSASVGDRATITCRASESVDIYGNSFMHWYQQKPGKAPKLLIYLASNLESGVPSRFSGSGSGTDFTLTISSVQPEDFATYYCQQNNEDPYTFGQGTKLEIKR	binding result	no binding
hSR1-6 (antibody, human IgG1, kappa, V domains shown, also called humanized SR1-6; hSR1-H3 / hSR1-L2r) VH: QVQLVQSGAEVKKPGASVKMSCKASGYTFTSYNMHWVRQAPGQGLEWIGVIYSGNGDTSYAQKFQGRATLTADTSTSTAYMELSSLRSEDTAVYYCARERDTRFGNWGQGTLVTVSS VL: DIQLTQSPSSLSASVGDRATITCRASESVDIYGNSFMHWYQQKPGKAPKLLIYLASNLESGVPSRFSGSGSRTDFTLTISSVQPEDFATYYCQQNNEDPYTFGQGTKLEIKR	binding result	no binding
hSR1-3 (antibody, human IgG1, kappa, V domains shown, also called humanized SR1-3; hSR1-H2b / hSR1-L2) VH: QVQLVQSGAEVKKPGASVKVSCKASGYTFTSYNMHWVRQAPGQGLEWMGVIYSGNGDTSYAQKFQGRVTMTADKSTSTAYMELSSLRSEDTAVYYCARERDTRFGNWGQGTLVTVSS VL: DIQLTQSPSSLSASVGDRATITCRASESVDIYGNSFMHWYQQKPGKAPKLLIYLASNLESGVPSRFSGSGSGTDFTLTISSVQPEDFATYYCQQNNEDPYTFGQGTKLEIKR	binding result	no binding
